# System: 5-hydroxytryptamine receptor 2A (Homo sapiens)
# Experiment description: 5-hydroxytryptamine receptor 2A (HTR2A) small molecule agonists, cell-based qHTS assay (AID 1963587); further: nearly all actives have a fitted effect of over 30% in size
# Condition parameters: HTR2A-CHO cells, calcium flux fluorescence, agonist mode; series mostly up to 76.8 µM
Inconclusive results are not listed. Calls of active or inactive are those of the source. The call rests on the fitted dose curve.
Use one of these outcomes when replying: yes (1) (active), no (0) (inactive)

Solved cases (3 shown):
INSERT INTO results (compound, category_label) VALUES
  ('CON(C)C(=O)Nc1ccc(Br)c(Cl)c1', 'no (0)'),
  ('c1cncc([C@@H]2CCCCN2)c1', 'no (0)'),
  ('CCOC(=O)C(SP(=S)(OC)OC)c1ccccc1 (stereo unspecified)', 'no (0)');

Challenge: What did this assay record as the result for "C[C@@H]1CC2=CC(=O)CC[C@@H]2[C@H]2CC[C@@]3(C)[C@@H](CC[C@]3(C)O)[C@@H]21" ?
Response given: no (0)

Challenge: Any idea what this test logged for "O=NN1CCNCC1" ?
Response given: no (0)

Challenge: How was "CSC1=N[C@@](C)(c2ccccc2)C(=O)N1Nc1ccccc1" classified in this test?
Response given: no (0)

* * *

# Experiment description: Nuclear factor erythroid 2-related factor 2/antioxidant responsive element (Nrf2/ARE) small molecule agonists: luciferase reporter gene qHTS assay in human keratinocytes (AID 1919969); further: nearly all actives have a fitted effect of over 35% in size
# Condition parameters: KeratinoSens HaCaT ARE-luciferase, luminescence, 24 h; series mostly up to 92.4 µM
Records with an inconclusive call do not appear. Activity calls are given as the source filed them. The call rests on the fitted dose curve.
Pick from YES (active), NO (inactive) when you respond.

Field: example entries. Status: answers known.
INSERT INTO assay_data (molecule, category_label) VALUES
  ('N#Cc1c(Cl)cccc1Cl', 'NO'),
  ('CCC(C)(c1ccc(O)cc1)c1ccc(O)cc1', 'NO'),
  ('CC(C)(C)c1cc([N+](=O)[O-])cc(C(C)(C)C)c1O', 'YES'),
  ('CCC(C)(C)C(=O)OC1=C(c2ccc(Cl)cc2Cl)C(=O)OC12CCCCC2', 'YES'),
  ('N#C/C(N)=C(/N)C#N', 'NO');

Challenge: Answer briefly: the call reported for CC(C)C(Br)C(=O)NC(N)=O (configuration not stated) in this assay.
Response given: NO

Challenge: Assay result, entry CC(CC(C(N)=O)(c1ccccc1)c1ccccc1)N(C)C (configuration not stated) — outcome?
Response given: NO

Challenge: // return assay outcome for "CCOP(=S)(OCC)Oc1cc(C)nc(N(CC)CC)n1"
Response given: NO

Challenge: Hi, do you know how "CCc1ccc(C(=O)NN(C(=O)c2cc(C)cc(C)c2)C(C)(C)C)cc1" came out in this test?
Response given: NO

* * *

# System: 5-hydroxytryptamine receptor 2A (Homo sapiens) (UniProt P28223)
# Sequence (P28223 whole entry, looked up): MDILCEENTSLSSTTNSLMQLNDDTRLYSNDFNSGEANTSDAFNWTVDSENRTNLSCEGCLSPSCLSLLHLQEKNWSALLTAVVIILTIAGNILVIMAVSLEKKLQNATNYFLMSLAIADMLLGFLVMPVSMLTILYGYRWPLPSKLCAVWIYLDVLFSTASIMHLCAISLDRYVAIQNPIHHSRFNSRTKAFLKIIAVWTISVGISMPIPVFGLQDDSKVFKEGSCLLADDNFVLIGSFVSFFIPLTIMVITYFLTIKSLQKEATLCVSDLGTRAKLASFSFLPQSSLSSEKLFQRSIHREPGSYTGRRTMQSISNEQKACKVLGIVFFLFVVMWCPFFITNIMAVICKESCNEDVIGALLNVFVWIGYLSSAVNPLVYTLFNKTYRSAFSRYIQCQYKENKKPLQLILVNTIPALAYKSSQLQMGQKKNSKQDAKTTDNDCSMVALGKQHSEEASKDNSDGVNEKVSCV
# Experiment description: 5-hydroxytryptamine receptor 2A (HTR2A) small molecule antagonists, cell-based qHTS assay (AID 1963586); further: nearly all actives have a fitted effect of over 45% in size
# Condition parameters: HTR2A-CHO cells, DOI-induced calcium flux, fluorescence; series mostly up to 61.5 µM
Inconclusive results are not listed. Calls of active or inactive are those of the source. The call rests on the fitted dose curve.
Field 'call' accepts class 1 for active, class 0 for inactive

INSERT INTO assay_data (molecule, category_label) VALUES
  ('COc1ncc(F)c2nc(S(=O)(=O)Nc3c(F)cccc3F)nn12', 'class 0'),
  ('CN1C2CCC(C)(C)C1CC(OC(=O)C(O)(c1cccs1)c1cccs1)C2 (stereo not given)', 'class 0'),
  ('CN1CCC(O)(c2ccc(F)cc2)C(C(=O)c2ccc(F)cc2)C1 (stereo not given)', 'class 0');

Challenge: Would you mind telling me which call this test gave "S=C(SSC(=S)N1CCCCC1)N1CCCCC1" ?
Response given: class 0

Challenge: Returns: the outcome recorded for "Cn1c(CCCC(=O)O)nc2cc(N(CCCl)CCCl)ccc21" in this assay.
Response given: class 0

Challenge: Dear colleague, could you share the recorded outcome for "CN(C)C1CCCCC1" when you have a moment?
Response given: class 0

Challenge: For "C=CCOC(C)=O" , what call appears in the results of this test?
Response given: class 0

Challenge: Which result was noted for this molecule in the test: "O=C1C=CC(=O)c2ccccc21"
Response given: class 0
